Reported IC50 is given for each of the following compounds.
tested on: phosphorylated 4E-BP1 Thr37/46 (p4E-BP1 Thr37/46), mTORC1 activity, PC3 cells; experiment: mTOR target engagement assay, immunofluorescent cell-based, p4E-BP1 Thr37/46 readout (mTORC1 activity); settings: Table 3-1; PC3 cells; read-out: p4E-BP1 Thr37/46 IC50

Past entries and their recorded results:
- CS(=O)(=O)c1c([C@@H]2C[C@H]3CC[C@@H](C2)N3C(=O)c2cc(N)n[nH]2)nc2c(-c3ccc(-c4ccccc4F)nc3)cnn2c1N: 1 to 100 nM
- COc1ncc(-c2ccc(-c3cnn4c(N)c(S(C)(=O)=O)c([C@@H]5C[C@H]6CC[C@@H](C5)N6C(=O)c5nnc[nH]5)nc34)cn2)cn1: 1000 to 10000 nM
- CS(=O)(=O)c1c([C@@H]2C[C@H]3CC[C@@H](C2)N3C(=O)c2nnc[nH]2)nc2c(-c3cccnc3)cnn2c1N: 100 to 1000 nM
- CS(=O)(=O)c1c([C@@H]2C[C@H]3CC[C@@H](C2)N3C(=O)c2nnc[nH]2)nc2c(-c3ccc(-c4ccc(OCF)cc4)nc3)cnn2c1N: 1 to 100 nM

The compound listed as "Cc1ccc(-c2cnn3c(N)c(S(C)(=O)=O)c([C@@H]4C[C@H]5CC[C@@H](C4)N5C(=O)c4nnc[nH]4)nc23)cn1" shows IC50 equal to 100 to 1000 nM

The compound listed as "Cn1cc2cc(-c3ccc(-c4cnn5c(N)c(S(C)(=O)=O)c([C@@H]6C[C@H]7CC[C@@H](C6)N7C(=O)c6nnc[nH]6)nc45)cn3)ccc2n1" shows IC50 equal to 1 to 100 nM

The compound listed as "CS(=O)(=O)c1c([C@@H]2C[C@H]3CC[C@@H](C2)N3c2nnc[nH]2)nc2c(-c3ccc(-c4ccccc4)nc3)cnn2c1N" shows IC50 equal to 1000 to 10000 nM

The compound listed as "Cc1nnc(C(=O)N2[C@@H]3CC[C@H]2C[C@H](c2nc4c(-c5ccc(-c6ccc(F)cc6)nc5)cnn4c(N)c2S(C)(=O)=O)C3)[nH]1" shows IC50 equal to 1 to 100 nM

The compound listed as "CS(=O)(=O)c1c([C@@H]2C[C@H]3CC[C@@H](C2)N3C(=O)c2nnc[nH]2)nc2c(-c3ccc(-c4ccncc4)nc3)cnn2c1N" shows IC50 equal to 1000 to 10000 nM

The compound listed as "CC(=O)N1[C@@H]2CC[C@H]1C[C@H](c1nc3c(-c4ccc(-c5ncc(C)s5)nc4)cnn3c(N)c1S(C)(=O)=O)C2" shows IC50 equal to 100 to 1000 nM

The compound listed as "CS(=O)(=O)c1c([C@@H]2C[C@H]3CC[C@@H](C2)N3C(=O)c2cc(N)n[nH]2)nc2c(-c3ccc(-c4ccc(F)cc4)nc3)cnn2c1N" shows IC50 equal to 1 to 100 nM

---

test system: phosphorylated AKT Ser473 (pAKT S473), mTORC2 activity, PC3 cells; assay: mTOR target engagement assay, immunofluorescent cell-based, pAKT S473 readout (mTORC2 activity); settings: Homo sapiens, PC-3, Table 7-2; PC3 cells
READOUT_LABEL: IC50

The compound listed as CCCC(O)c1ccc(-c2cnn3c(N)c(S(C)(=O)=O)c([C@@H]4C[C@H]5CC[C@@H](C4)N5C(=O)c4nnc[nH]4)nc23)cn1 (stereo partly drawn) shows IC50 equal to 1000 to 10000 nM

The compound listed as "CC(C)(O)c1ccc(-c2cnn3c(N)c(S(C)(=O)=O)c([C@@H]4C[C@H]5CC[C@@H](C4)N5C(=O)c4nnc[nH]4)nc23)cn1" shows IC50 equal to 1 to 100 nM

The compound listed as CCC(O)c1ccc(-c2cnn3c(N)c(S(C)(=O)=O)c([C@@H]4C[C@H]5CC[C@@H](C4)N5C(=O)c4nnc[nH]4)nc23)cn1 (stereo partly drawn) shows IC50 equal to 100 to 1000 nM

Recorded values, source patent US9227971B2.
